These measurements were taken from PubChem BioAssay (NCI).

Some molecules, each annotated with its measured growth.
- Test system: OVCAR-8 ovarian
- test: NCI-60 one-dose screen, 48 h (100 = growth as untreated, 0 = no growth, -100 = all killed)
- assay_conditions: 10 µM unless noted
- Experimental: Growth inhibition of the OVCAR-8 human tumor cell line is measured as a screen for anti-cancer activity. Cells are grown in 96 well plates and exposed to the test compound for 48 hours. Compounds are tested at a single concentration, which is 10^-5 M for most compounds. The reported endpoint is percent growth (GI% or GIPRCNT), where numbers from 0 - 100% represent growth inhibition, and numbers from -100% - 0 represent cell death. For example, a value of 40 represents 60% growth inhibition. […]
This is part of a sample that, as a whole, favours compounds with a hit. Of some 83,000 tested, about 20% had one in any assay.
Form entry: value (%) — number only.

Below: 5 molecules and their reported growth.
molecule="CC(=O)N1N=C(C2C(=O)N(C)C(=O)N(C)C2=O)CC1c1ccccc1C(=O)O (centres undefined)" measured_parameter=growth reading=103
molecule=O=c1c2cc(Br)cc(Br)c2nc(-c2ccc(Cl)cc2)n1/N=C\c1ccccc1F measured_parameter=growth reading=47
molecule="NC(=S)N1N=C(c2ccc(Cl)cc2)CC1c1cc2ccccc2[nH]c1=O (centres undefined)" measured_parameter=growth reading=111
molecule=O=C(Nc1cccc(-n2ccc3c(NC(=O)c4ccccc4)nccc32)c1)c1ccc(N2CCOCC2)c(C(F)(F)F)c1 measured_parameter=growth reading=16.3
molecule=S=C(S)Oc1cccc2cccnc12 measured_parameter=growth reading=108

Lab note: "C=C(C)[C@@H]1CC[C@]2(C(=O)NC(COC(=O)C(Cl)Cl)(COC(=O)C(Cl)Cl)COC(=O)C(Cl)Cl)CC[C@]3(C)[C@H](CC[C@@H]4[C@@]5(C)CC[C@H](OC(C)=O)C(C)(C)[C@@H]5CC[C@]43C)[C@@H]12" gave growth of 73.6

For this molecule ( "CCCCOC(=O)c1cc(O)c(O)c(O)c1" ), measured growth is 68.6

Reported growth of CCCCCN(CCCCC)C(=O)C(CCC(=O)O)NC(=O)c1ccc(Cl)c(Cl)c1 (centres undefined) : 106

Measured growth of CCCCCCCCOC(=O)C(C)OC(=O)OCCOCCOC(=O)OC(C)C(=O)OCCCCCCCC (centres undefined) : 105

====

- System: A498 renal
- test: NCI-60 one-dose screen, 48 h (100 = growth as untreated, 0 = no growth, -100 = all killed)
- assay_conditions: 10 µM unless noted
The panel holds about 83,000 compounds, 20% with a hit somewhere; the sample as a whole holds those more often.
measured_parameter: growth (%)
# unit: % | format: bare number

# example entries with known answers
molecule=O=C(Nc1ccc(-n2ccc3c(NC(=O)c4ccccc4)nccc32)cc1)c1ccc(N2CCOCC2)c(C(F)(F)F)c1 assayed_system="A498 renal" reading=68.9
molecule=Cc1cc(O)c2cc3c(O)c(O)ccc3cc2c1 assayed_system="A498 renal" reading=103
molecule=COc1ccc2nc3cc(Cl)ccc3c(NC(=O)CSc3ccc(Cl)cc3)c2c1 assayed_system="A498 renal" reading=-99
molecule=COc1ccc(-n2nc(C(=O)Nc3ccc(F)cc3)nc2-c2cc(OC)c(OC)c(OC)c2)cc1 assayed_system="A498 renal" reading=66.6

Here's the next entry for you.
I looked up CN1C(=O)C(C2=NNC(c3ccccc3C(=O)O)C2)C(=O)N(C)C1=O (stereo not given) and its growth for A498 renal was 90.8

====

growth values for the molecules below.
- System: HOP-62 NSCLC
- test: NCI-60 one-dose screen, 48 h (100 = growth as untreated, 0 = no growth, -100 = all killed)
- assay_conditions: 10 µM unless noted
Compounds without any hit were thinned out: in the full panel of roughly 83,000, 20% have a hit.
# number only, unit % dropped from output

molecule="COc1ccc(C(=O)OC2C(OC3C(O)COC(O[C@H]4C[C@H]5[C@@H]6CC=C7C[C@@H](O)CC[C@]7(C)[C@H]6CC[C@]5(C)[C@H]4[C@H](C)C(=O)CCC(C)C)C3OC(=O)C(C)C)OCC(O)C2O)cc1 (some centres undefined)" unit_tag=% reading=-14.2
molecule=O=C(Nc1ccc(-n2ccc3c(NC(=O)c4ccccc4)nccc32)cc1)c1ccc(N2CCOCC2)c(C(F)(F)F)c1 unit_tag=% reading=21.1
molecule=COc1ccccc1CNCCCN1C(=O)c2ccc3c4c(ccc(c24)C1=O)C(=O)N(CCCCNCCCN)C3=O unit_tag=% reading=40.1
molecule=COc1ccc2c(c1)C1=NN(C(=O)CO)[C@H](c3ccc(OC(F)(F)F)cc3)[C@@H]1CC2 unit_tag=% reading=97.4
molecule=CS(=O)(=O)c1ccc(C(=O)N/N=C/c2ccc3c(c2)OCO3)cc1 unit_tag=% reading=96.8

Lab note: measured growth of "OC(COCc1ccccc1)COCc1ccccc1" was 106

Value of measured growth for the entry "CNCCCn1c2c(c3ccc(Cl)cc3c1=O)C(=O)c1cc(OC)cnc1-2" : 17.6

Field growth (entry "CCOc1cc(/C=N\NC(=O)C[N+](C)(C)C)ccc1O" ) reads 115

The molecule listed as "c1ccc2oc(-c3cnc4nonc4n3)cc2c1" shows growth equal to 84.7

====

- Test system: HCC-2998 colon
- test: NCI-60 one-dose screen, 48 h
- assay_conditions: 10 µM unless noted
This is part of a sample that, as a whole, favours compounds with a hit. Of some 83,000 tested, about 20% had one in any assay. Active and inactive are the calls of the source. The calls were made as follows: active = growth percent below 10; inactive = the rest.
Answer with one of the outcomes 1 (active), 0 (inactive)

Below, 5 molecules whose answers are already recorded.
molecule=Nc1cc(C(=O)O)cc(C(=O)O)c1 assigned_label=0
molecule=COc1ccc(CNc2c3ccccc3nc3ccccc23)cc1F assigned_label=1
molecule=O=[N+]([O-])c1ccc(SSc2ccc([N+](=O)[O-])cc2Cl)c(Cl)c1 assigned_label=0
molecule=COc1cc(OC)c2sc(-c3ccc(-n4cncc4-c4ccc(OC)c(N)c4)cc3)nc2c1 assigned_label=0
molecule=c1coc(CNc2c3ccccc3nc3ccccc23)c1 assigned_label=0

Dear all, I need the recorded test outcome for COc1ccc2c(c1)N(Cc1ccc(Cl)cc1)CCC2N1CCCC1=O (stereo unspecified) , thank you. 0

Status in this test for Cc1ccccc1C1CC(=O)c2ccccc2C1C (stereo unspecified) ? 0

Could you check what this test reported for CCN(CC)CCCC(C)Nc1ccnc2ccc(Oc3ccccc3)cc12 (stereo unspecified) ? 0

====

- System: OVCAR-8 ovarian
- test: NCI-60 one-dose screen, 48 h (100 = growth as untreated, 0 = no growth, -100 = all killed)
- assay_conditions: 10 µM unless noted
About 83,000 compounds went through this panel and 20% of them were active in at least one assay; those are over-represented in the sample as a whole. Calls of active or inactive are those of the source. How the source made its calls: active means growth percent below 10; inactive means the rest.
// reported growth for each item listed

Below, 3 compounds whose answers are already recorded.
compound=CC(=O)Cc1ccccn1 assayed_system="OVCAR-8 ovarian" measured_parameter=growth reading="110% (inactive)"
compound=CN1CCCN(CCNc2nccc(-c3c(-c4cccc(O)c4)nc4sccn34)n2)S1(=O)=O assayed_system="OVCAR-8 ovarian" measured_parameter=growth reading="60.1% (inactive)"
compound=COc1cc(/C=C\c2cc(/C=C\c3ccc(O)c(OC)c3)n(C(=O)Nc3ccc(C(F)(F)F)cc3)n2)ccc1O assayed_system="OVCAR-8 ovarian" measured_parameter=growth reading="0.433% (active)"

I looked up CCN1C(=O)C(C)C=C(C)C=C1C (stereo not given) and its growth for OVCAR-8 ovarian was 102% (inactive)

// growth (OVCAR-8 ovarian) for COc1cc(C2CC(c3cccc(Nc4ccnc5cc(Cl)ccc45)c3)=NN2C=O)cc(OC)c1OC (stereo not given) = 23.2% (inactive)

====

- System: UACC-257 melanoma
- test: NCI-60 one-dose screen, 48 h
- assay_conditions: 10 µM unless noted
Compounds without any hit were thinned out: in the full panel of roughly 83,000, 20% have a hit. The source made the active and inactive calls. Rule for the calls: active = growth percent below 10; inactive = the rest.
Output constraint: value belongs to TRUE (active), FALSE (inactive)

Solved cases below.
compound=CC(C)CCSc1nc(Nc2ccccc2)c(C#N)c(-c2ccc(F)cc2)n1 assayed_system="UACC-257 melanoma" assigned_label=FALSE
compound="CCCCCCCCCCCCC1CCC(=O)O1 (stereo not given)" assayed_system="UACC-257 melanoma" assigned_label=FALSE

Per the records of this test, what outcome belongs to "Cc1c(C(=O)Nc2ccccc2F)sc2c(=O)[nH]cnc12" ? FALSE

Hello, I am checking results. What call was entered for "COc1cc(-c2nc(-c3ccc(-c4nc5ccc(F)cc5[nH]4)cc3)no2)cc(OC)c1OC" ? FALSE

Kindly provide the recorded test outcome for the following compound: "c1ccc(CCn2cccc2)nc1" FALSE

Kindly provide the recorded test outcome for the following compound: COc1cc(CN(c2ccc(C)cc2)C2OC(=O)c3ccccc32)cc(OC)c1OC (stereo not given) FALSE

What call does the record list for "NC(N)=NC1CCCCC1" ? FALSE

Would you mind telling me which call this test gave "CS(=O)(=O)c1ccc(C(=O)N/N=C/c2cccc3ccccc23)cc1" ? FALSE

In this assay, the call recorded for "O=C(/C=C/c1ccccc1)c1c[nH]c2ccccc2c1=O" was what? FALSE

Hi, sorry to bother you, what did the test record for "CCN(CC)CC(=O)Nc1c(C)cc(C(=O)NN)cc1C" ? FALSE

Which result was noted for this compound in the test: "Cc1ccncc1NC=O" FALSE

Hey, what did the test say about CCOC(=O)C1C(=O)C=C(c2ccccc2)CC1c1sc(N(C)Cc2ccccc2)nc1Cl (stereo not given) ? FALSE

Can you look up the reported call for "O=C(CCl)N1c2ccccc2Oc2ccc3ccccc3c21" for me? TRUE
